Biological target: FLT3 (Homo sapiens)
Sequence (P36888 27-993): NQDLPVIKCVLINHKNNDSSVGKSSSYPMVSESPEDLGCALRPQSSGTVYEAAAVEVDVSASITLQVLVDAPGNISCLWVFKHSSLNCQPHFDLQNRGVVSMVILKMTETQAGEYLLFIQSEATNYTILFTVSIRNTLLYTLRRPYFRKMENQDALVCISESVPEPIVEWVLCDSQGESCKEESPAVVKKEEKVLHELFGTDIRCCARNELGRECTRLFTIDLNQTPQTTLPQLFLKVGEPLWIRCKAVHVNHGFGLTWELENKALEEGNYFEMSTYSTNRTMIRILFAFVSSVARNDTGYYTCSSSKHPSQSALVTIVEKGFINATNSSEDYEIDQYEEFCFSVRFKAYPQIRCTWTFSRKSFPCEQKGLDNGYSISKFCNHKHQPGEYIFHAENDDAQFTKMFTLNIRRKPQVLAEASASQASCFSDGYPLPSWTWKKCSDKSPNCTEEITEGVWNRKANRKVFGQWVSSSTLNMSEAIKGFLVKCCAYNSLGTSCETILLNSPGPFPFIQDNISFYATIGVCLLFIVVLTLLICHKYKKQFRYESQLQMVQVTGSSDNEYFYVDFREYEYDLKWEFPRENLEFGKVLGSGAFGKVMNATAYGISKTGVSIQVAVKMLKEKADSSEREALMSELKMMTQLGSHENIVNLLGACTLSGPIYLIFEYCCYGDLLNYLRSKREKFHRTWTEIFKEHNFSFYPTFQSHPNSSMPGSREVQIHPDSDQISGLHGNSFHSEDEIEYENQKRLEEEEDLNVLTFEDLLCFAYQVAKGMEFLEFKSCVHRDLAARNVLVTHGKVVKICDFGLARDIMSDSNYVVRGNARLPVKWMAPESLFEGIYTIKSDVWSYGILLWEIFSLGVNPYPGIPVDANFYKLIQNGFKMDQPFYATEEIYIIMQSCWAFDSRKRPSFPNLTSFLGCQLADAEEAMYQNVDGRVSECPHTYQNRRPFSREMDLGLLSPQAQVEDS
ENDPOINT_NAME: IC50

COMPOUND: C[C@@H](COC(F)F)Nc1ncc2c(-c3cnn(C(C)(C)C(=O)N4CCN(C)CC4)c3)cc([C@H]3CC[C@H](O)CC3)n2n1
ASSAY_TARGET: FLT3 (Homo sapiens)
REPORTED_MEASUREMENT: 100 to 1000 nM
--
COMPOUND: CC(CC1CC1)Nc1ncc2c(-c3ccc(CN4CCOCC4)cc3)cc(C3CCC(O)CC3)n2n1 (stereo not shown)
ASSAY_TARGET: FLT3 (Homo sapiens)
REPORTED_MEASUREMENT: ≤ 100 nM
--
COMPOUND: COC[C@H](C)Nc1ncc2c(-c3ccc(CN4CCOCC4)cc3)cc([C@H]3CC[C@H](NS(C)(=O)=O)CC3)n2n1
ASSAY_TARGET: FLT3 (Homo sapiens)
REPORTED_MEASUREMENT: ≤ 100 nM
--
COMPOUND: COC[C@H](C)Nc1ncc2c(-c3ccc(CN4CCN(C(C)=O)CC4)cc3)cc([C@H]3CC[C@H](O)CC3)n2n1
ASSAY_TARGET: FLT3 (Homo sapiens)
REPORTED_MEASUREMENT: 100 to 1000 nM
--
COMPOUND: COC[C@H](C)Nc1ncc2c(-c3cnn(CC(=O)N4CCCC4)c3)cc([C@H]3CC[C@H](O)CC3)n2n1
ASSAY_TARGET: FLT3 (Homo sapiens)
REPORTED_MEASUREMENT: 100 to 1000 nM
--
COMPOUND: COCC(C)Nc1ncc2c(C3CCCN(C(C)=O)C3)cc(C3CCC(O)CC3)n2n1 (stereo not shown)
ASSAY_TARGET: FLT3 (Homo sapiens)
REPORTED_MEASUREMENT: 1000 to 10000 nM
--
COMPOUND: COC[C@H](C)Nc1ncc2c(-c3ccnc(O[C@@H]4CCCNC4)c3)cc([C@H]3CC[C@H](O)CC3)n2n1
ASSAY_TARGET: FLT3 (Homo sapiens)
REPORTED_MEASUREMENT: 100 to 1000 nM

* * *

Protein target, amino acids: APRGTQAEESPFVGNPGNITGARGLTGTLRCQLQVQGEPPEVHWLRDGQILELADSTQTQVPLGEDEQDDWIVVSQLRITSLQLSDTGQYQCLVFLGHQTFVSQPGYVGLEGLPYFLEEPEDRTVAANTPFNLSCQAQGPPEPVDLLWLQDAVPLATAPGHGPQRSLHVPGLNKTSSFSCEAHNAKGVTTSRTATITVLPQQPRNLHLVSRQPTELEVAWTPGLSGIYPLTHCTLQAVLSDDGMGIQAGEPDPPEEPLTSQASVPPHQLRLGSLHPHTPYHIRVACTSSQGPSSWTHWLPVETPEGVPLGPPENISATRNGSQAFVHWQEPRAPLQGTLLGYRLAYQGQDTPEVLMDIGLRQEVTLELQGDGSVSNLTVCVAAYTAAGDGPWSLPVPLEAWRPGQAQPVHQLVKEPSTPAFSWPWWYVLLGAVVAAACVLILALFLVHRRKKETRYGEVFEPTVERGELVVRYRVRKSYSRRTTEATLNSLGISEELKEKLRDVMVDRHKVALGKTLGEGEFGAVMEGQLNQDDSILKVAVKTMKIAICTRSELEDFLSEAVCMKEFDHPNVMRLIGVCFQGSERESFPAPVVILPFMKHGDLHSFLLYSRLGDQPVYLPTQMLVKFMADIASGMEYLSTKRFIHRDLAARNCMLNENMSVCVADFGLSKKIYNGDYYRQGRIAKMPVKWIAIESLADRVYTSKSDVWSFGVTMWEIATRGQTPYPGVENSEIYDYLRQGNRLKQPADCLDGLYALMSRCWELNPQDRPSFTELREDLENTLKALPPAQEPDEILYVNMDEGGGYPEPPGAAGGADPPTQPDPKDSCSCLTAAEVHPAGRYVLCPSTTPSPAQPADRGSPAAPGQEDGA
pIC50: −log10 of the molar value.

COMPOUND: COC[C@H](C)Nc1ncc2c(-c3ccnc([S@](C)(=N)=O)c3)cc([C@H]3CC[C@H](O)CC3)n2n1 [Compound 575]
pIC50: 6.00 to 7.00

COMPOUND: COC[C@H](C)Nc1ncc2c(-c3cnn(C4(C(=O)N5CCCC5)CC4)c3)cc([C@H]3CC[C@H](O)CC3)n2n1 [Compound 408]
pIC50: ≥ 7.00

COMPOUND: COC[C@H](C)Nc1ncc2c(-c3ccnc(N4CCOCC4)c3)cc([C@H]3CC[C@@](C)(O)CC3)n2n1 [Compound 548]
pIC50: ≥ 7.00

COMPOUND: CCCCC[C@H](C)Nc1ncc2c(C3=CCC(C(=O)O)CC3)cc([C@H]3CC[C@H](O)CC3)n2n1 (stereo partly shown) [Compound 122]
pIC50: ≥ 7.00

COMPOUND: CNC(=O)Cn1cc(-c2cc([C@H]3CC[C@H](O)CC3)n3nc(N[C@@H](C)COC)ncc23)cn1 [Compound 241]
pIC50: 6.00 to 7.00

COMPOUND: COC[C@H](C)Nc1ncc2c(-c3cc(C)nc(C)c3)cc([C@H]3CC[C@H](O)CC3)n2n1 [Compound 308]
pIC50: 6.00 to 7.00

COMPOUND: COC[C@H](C)Nc1ncc2c(-c3cnn(CC4CCO4)c3)cc([C@H]3CC[C@H](O)CC3)n2n1 (stereo partly shown) [Compound 439]
pIC50: ≥ 7.00

* * *

Target: FLT3 (Homo sapiens, UniProt P36888)
Sequence (P36888 27-993): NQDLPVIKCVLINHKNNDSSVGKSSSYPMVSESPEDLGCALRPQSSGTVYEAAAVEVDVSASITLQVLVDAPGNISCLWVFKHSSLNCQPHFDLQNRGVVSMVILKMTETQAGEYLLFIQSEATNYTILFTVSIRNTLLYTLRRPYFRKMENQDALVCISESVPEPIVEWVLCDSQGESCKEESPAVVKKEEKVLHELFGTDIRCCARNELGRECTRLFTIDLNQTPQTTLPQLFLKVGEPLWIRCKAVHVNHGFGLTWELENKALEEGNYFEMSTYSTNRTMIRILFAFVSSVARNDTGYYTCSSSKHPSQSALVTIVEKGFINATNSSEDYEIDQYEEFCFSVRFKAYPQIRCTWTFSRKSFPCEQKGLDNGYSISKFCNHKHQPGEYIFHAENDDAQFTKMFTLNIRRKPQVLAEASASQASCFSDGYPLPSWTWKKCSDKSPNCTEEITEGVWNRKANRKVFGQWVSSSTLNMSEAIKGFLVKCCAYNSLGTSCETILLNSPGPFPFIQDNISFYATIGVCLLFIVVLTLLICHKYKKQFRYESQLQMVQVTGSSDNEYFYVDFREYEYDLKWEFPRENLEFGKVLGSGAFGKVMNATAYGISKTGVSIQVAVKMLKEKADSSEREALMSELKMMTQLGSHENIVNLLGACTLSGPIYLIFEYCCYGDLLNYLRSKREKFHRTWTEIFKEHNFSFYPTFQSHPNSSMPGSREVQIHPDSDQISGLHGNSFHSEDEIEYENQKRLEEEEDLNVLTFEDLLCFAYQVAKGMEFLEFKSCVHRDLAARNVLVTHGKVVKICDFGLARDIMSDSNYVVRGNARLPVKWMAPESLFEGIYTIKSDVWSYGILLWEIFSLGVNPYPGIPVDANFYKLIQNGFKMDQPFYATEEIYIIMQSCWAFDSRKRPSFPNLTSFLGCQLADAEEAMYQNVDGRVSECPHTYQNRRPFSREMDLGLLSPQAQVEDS
Assay: TR-FRET kinase activity assay, FLT3
Assay type: biochemical
Settings: ATP at Km, 60 minutes
pIC50: −log10 of the molar value.
ENDPOINT_NAME: pIC50

COMPOUND: COC[C@H](C)Nc1ncc2c(-c3ccnc(N4CCCC4)c3)cc([C@H]3CC[C@H](O)CC3)n2n1 [Compound 339]
ENDPOINT_NAME: pIC50
REPORTED_MEASUREMENT: 6.00 to 7.00

COMPOUND: CC(C)(O)C1CN(c2cc(-c3cc([C@H]4CC[C@H](O)CC4)n4nc(NCCOC(F)F)ncc34)ccn2)CCO1 (stereo partly shown) [Compound 557]
ENDPOINT_NAME: pIC50
REPORTED_MEASUREMENT: 6.00 to 7.00

COMPOUND: COC[C@H](C)Nc1ncc2c(-c3cnn(C4CN(C(=O)C5(C(F)(F)F)CC5)C4)c3)cc([C@H]3CC[C@H](O)CC3)n2n1 [Compound 294]
ENDPOINT_NAME: pIC50
REPORTED_MEASUREMENT: ≥ 7.00

COMPOUND: COC[C@H](C)Nc1ncc2c(-c3cnn(CC4CCO4)c3)cc([C@H]3CC[C@H](O)CC3)n2n1 (stereo partly shown) [Compound 439]
ENDPOINT_NAME: pIC50
REPORTED_MEASUREMENT: 6.00 to 7.00

COMPOUND: CCC1(O)CCC(c2cc(-c3cnn(C4COC4)c3)c3cnc(NC(C)COC)nn23)CC1 (stereo not shown) [Compound 615]
ENDPOINT_NAME: pIC50
REPORTED_MEASUREMENT: 6.00 to 7.00

COMPOUND: COC[C@H](C)Nc1ncc2c(-c3cnn([C@H]4CCNC4=O)c3)cc([C@H]3CC[C@H](O)CC3)n2n1 [Compound 348]
ENDPOINT_NAME: pIC50
REPORTED_MEASUREMENT: 6.00 to 7.00

COMPOUND: COC[C@H](C)Nc1ncc2c([C@H]3CC[C@@H](C(=O)N4CCC(F)(F)CC4)CC3)cc([C@H]3CC[C@H](O)CC3)n2n1 [Compound 577]
ENDPOINT_NAME: pIC50
REPORTED_MEASUREMENT: 5.00 to 6.00
